# assaySummary: Aqueous solubility of the compound
# Assay type: physicochemical
# conditionDescription: water
Listed here are compounds together with their documented solubility.

Please review the following examples before continuing.
[[record]]
chemsmiles = "CC(C)(Oc1ccc(C(=O)c2ccc(Cl)cc2)cc1)C(=O)OC(COC(CO)CO)COC(CO)CO"
reportedendpoint = "solubility"
measuredvalue = "> 1000 µg/mL"

[[record]]
chemsmiles = "CC(C)(Oc1ccc(CCNC(=O)c2ccc(Cl)cc2)cc1)C(=O)OC(COC(CO)CO)COC(CO)CO"
reportedendpoint = "solubility"
measuredvalue = "> 1000 µg/mL"


// next entry
The compound listed as CC(C)(Oc1ccc(Cl)cc1)C(=O)OC(COC(CO)CO)COC(CO)CO has a reported solubility of > 1000 µg/mL
